Molecular target: T1, Ube2g2 (UniProt P60604 1-165)
T1 sequence: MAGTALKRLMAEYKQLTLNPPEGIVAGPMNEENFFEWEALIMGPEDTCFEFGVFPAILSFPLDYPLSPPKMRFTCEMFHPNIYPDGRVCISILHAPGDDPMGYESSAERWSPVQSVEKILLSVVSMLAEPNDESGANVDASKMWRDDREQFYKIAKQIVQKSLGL
Test: ITC

>  <binder>
SADERQRMLVQRKDELLQQARKRFLNK (peptide, UniProt Q9UKV5 574-600, looked up) [G2BR peptide (Ube2g2 binding region of gp78, amino acids 574-600)]

>  <Kd / nM>
21

$$$$

# credit: paper PMC3050579
